system: VEGF; test: Evaluation of VEGF protein secretion level (Human VEGF ELISA) in ARPE-19 cell medium under hypoxic conditions; assay type: cell-based; settings: ARPE-19 cells; pretreated 2 hours, 24 hours hypoxic conditions; secreted VEGF in medium supernatant by ELISA; concentration range reducing VEGF by 50% vs untreated control; read-out: IC50 VEGF
pIC50: −log10 of the molar value.
Observed Property: pIC50

O=C1CC[C@H](c2nc3ncnc(C(=O)NCc4cc(F)cc(-c5cnn(-c6ccc(F)cc6)c5)c4)c3[nH]2)C1 = 6.00 to 7.00
C[C@H](NC(=O)c1ncnc2nc(C3CCCC3)[nH]c12)c1cccc(-c2cnn(C)c2)c1 = 5.00 to 6.00
O=C(NCc1cc(F)cc(Nc2cccc(C(F)(F)F)c2)c1)c1ncnc2nc(C3CCCC3)[nH]c12 = 6.00 to 7.00
O=C1CC[C@@H](c2nc3ncnc(C(=O)NCc4cc(F)cc(-c5cnn(-c6ccc(F)cc6)c5)c4)c3[nH]2)C1 = 6.00 to 7.00
O=C(NCc1cc(F)cc(-c2cnn(-c3ccccn3)c2)c1)c1ncnc2nc(C3CCCC3)[nH]c12 = 6.00 to 7.00
O=C(NCc1cc(F)cc(-c2cnn(-c3ccc(F)c(F)c3)c2)c1)c1ncnc2nc(C3CCCC3)[nH]c12 = 6.00 to 7.00
Cc1cc(-n2cc(-c3cc(F)cc(CNC(=O)c4ncnc5nc(C6CCCC6)[nH]c45)c3)cn2)ccn1 = > 7.00
